Data credit: patent US20230265116A1

- System: EGFR Del19/T790M/C797S (H1975-clone #28)
- assayExplanation: EGFR degradation HTRF assay, H1975-clone #28 DTC cells
- Type: cell-based
- measurementContext: H1975 # 28 DTC cells; maximum percentage of inhibition (degradation)
Record Criterion met whenever Dmax (%) H1975 # 28 DTC is at 80% or higher; record Criterion not met when lower.

{"compound": "CCOc1cc(N2CCC(N3CCN(C(=O)[C@@H]4CCN(c5cc(F)c([C@H]6CCC(=O)NC6=O)c(F)c5)C4)CC3)CC2)c(CC)cc1Nc1ncc(Br)c(Nc2ccc3nc(C)c(F)cc3c2P(C)(C)=O)n1", "classification": "Criterion met"}
{"compound": "CCOc1cc(N2CCC(N3CCN(CCC4CCN(c5cc(F)cc6c5oc(=O)n6C5CCC(=O)NC5=O)CC4)CC3)CC2)c(CC)cc1Nc1ncc(Br)c(Nc2ccc3nc(CC)ccc3c2P(C)(C)=O)n1 (centres unmarked)", "classification": "Criterion met"}
{"compound": "CCOc1cc(N2CCC(N3CCN(C[C@H]4CCN(c5cccc6c5oc(=O)n6C5CCC(=O)NC5=O)C4)CC3)CC2)c(CC)cc1Nc1ncc(Br)c(Nc2ccc3c(=O)n(CC)ncc3c2P(C)(C)=O)n1 (some centres unmarked) [Example 611]", "classification": "Criterion not met"}
